biological target: thrombin; experiment: cell-based or functional assay
Listed below: Relative Activity (ratio of variant IC50/WT IC50), chromogenic thrombin inhibition assay values for each entry.
Give your result in ratio as a bare value.

> print(dat)
                                     binder  result.units  quantitative.readout
1  hirudin mutein M 17 (I29D L30Q) (other) VVYTDCTESGQNLCLCEGSVVCGQGNKCDQGSDGEKNQCVTGEGTPKPESHNDGDFEEIPEEYLQ         ratio                     2
2  hirudin mutein M 28 (I29S L30K) (other) VVYTDCTESGQNLCLCEGSVVCGQGNKCSKGSDGEKNQCVTGEGTPKPESHNDGDFEEIPEEYLQ         ratio                   1.5
3  hirudin mutein M 63 (L30E) (other) VVYTDCTESGQNLCLCEGSVVCGQGNKCIEGSDGEKNQCVTGEGTPKPESHNDGDFEEIPEEYLQ         ratio                  3.33
4  hirudin mutein M 79 (D53N) (other) VVYTDCTESGQNLCLCEGSVVCGQGNKCILGSDGEKNQCVTGEGTPKPESHNNGDFEEIPEEYLQ         ratio                     1

Now for a further binder.
In: What does the data say about its Relative Activity (ratio of variant IC50/WT IC50), chromogenic thrombin inhibition assay? Entry: hirudin mutein M 36 (I29T L30T) (other) VVYTDCTESGQNLCLCEGSVVCGQGNKCTTGSDGEKNQCVTGEGTPKPESHNDGDFEEIPEEYLQ
Out: 1.8
